Provide the reported switch fluorescence ratio of each item.
Tested on: ATP;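 note: ATP exposure 15 min at 22 °C before imaging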
Assay: switch fluorescence ratio, 500 uM ATP over buffer (Cy3 cluster intensity, sum of 5 cycles each) (fold (ratio)); higher = stronger signal-on switching upon ATP binding; sequences stand for … in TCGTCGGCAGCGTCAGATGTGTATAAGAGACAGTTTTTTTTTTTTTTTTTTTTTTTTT…TC
Settings: aptamer strand: ATP DNA aptamer (quencher-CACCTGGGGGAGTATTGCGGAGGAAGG + anchor), 100 nM annealed; ATP concentration: 500 uM
Please reply with the number alone, leaving off any unit.

Q: Read off the recorded switch fluorescence ratio for GTTAGTAGCT
A: 0.97

Q: Read off the recorded switch fluorescence ratio for ATGGGGGTTG
A: 0.999

Q: Read off the recorded switch fluorescence ratio for AATAAGAATA
A: 1

Q: Read off the recorded switch fluorescence ratio for GTGGCTAATT
A: 1
